- run.description: qHTS of pediatric cancer cell lines to identify multiple opportunities for drug repurposing: Primary screen for SK-N-SH cells (AID 1347098); note: nearly all actives have a fitted effect of over 65% in size
- experimental.parameters: SK-N-SH viability, CellTiter-Glo luminescence, 48 h; series mostly up to 57 µM
Inconclusive results are not listed. Calls of active or inactive are those of the source. Calls come from the whole dose curve; as a rule, active = well fitted cell-killing curve with a large enough effect; inconclusive = small, poorly fitted or top-dose-only effect; inactive = no such curve, though single readings can be large or run the other way.
Labels: active, inactive

>>> group_label("CCCS(=O)(=O)Nc1ccc(F)c(C(=O)c2c[nH]c3ncc(Cl)cc23)c1F")
"active"
>>> group_label("CNC(=O)c1ccc(C)c(-n2c(C)cc(OCc3ccc(F)cc3F)c(Br)c2=O)c1")
"inactive"
>>> group_label("O=C(O)COCCN1CCN(C(c2ccccc2)c2ccc(Cl)cc2)CC1 (centres undefined)")
"inactive"
>>> group_label("CC(C)NCC(O)COc1ccc(COCCOC(C)C)cc1 (centres undefined)")
"inactive"
>>> group_label("COc1ccc([C@@H]2CC(=O)c3c(O)cc(O[C@@H]4O[C@H](CO[C@@H]5O[C@@H](C)[C@H](O)[C@@H](O)[C@@H]5O)[C@@H](O)[C@H](O)[C@@H]4O)cc3O2)cc1O")
"inactive"
>>> group_label("NC(=O)c1ccc(-c2nc(-c3ccc4c(c3)OCO4)c(-c3ccccn3)[nH]2)cc1")
"inactive"
>>> group_label("COc1cc(Nc2ncc3c(n2)-c2ccc(Cl)cc2C(c2c(F)cccc2OC)=NC3)ccc1C(=O)O")
"active"
>>> group_label("Cc1ccc(NC(=O)c2cccc(C(C)(C)C#N)c2)cc1Nc1ccc2ncn(C)c(=O)c2c1")
"active"
>>> group_label("Nc1nc2c(ncn2COCCO)c(=O)[nH]1")
"inactive"

###

- run.description: qHTS for differential inhibitors of proliferation of Plasmodium falciparum line HB3 (AID 1886);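 note: parasites grown with compound for 72 h before SYBR Green readout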
- experimental.parameters: Plasmodium falciparum HB3 proliferation inhibition; series mostly up to 28.7 µM
Results filed as inconclusive are left out. Activity calls are given as the source filed them. Calls come from the whole dose curve; as a rule, active = well fitted curve in the direction sought with a large enough effect; inconclusive = small, poorly fitted or top-dose-only effect, or another doubt; inactive = no such curve, though single readings can be large or run the other way.
Labels: active, inactive

>>> group_label("NC[C@H](O)c1ccc(O)c(O)c1")
"inactive"
>>> group_label("CC(C)C[C@H](NC(=O)[C@@H](O)[C@H](N)Cc1ccccc1)C(=O)O")
"active"
>>> group_label("CC(C[N+](C)(C)C)OC(N)=O (stereo not drawn)")
"inactive"
>>> group_label("CCOC(=O)C1=C[C@]2(CC)CCCN3CCc4c(n1c1ccccc41)[C@@H]32")
"active"
>>> group_label("Cc1[nH]c(=O)c(C#N)cc1-c1ccc2nccn2c1")
"inactive"
>>> group_label("NS(=O)(=O)c1cc2c(cc1Cl)NC=NS2(=O)=O")
"inactive"
>>> group_label("NC(=O)c1cnccn1")
"inactive"
>>> group_label("CC(C)NCC(O)COc1ccc(COCCOC(C)C)cc1 (stereo not drawn)")
"inactive"
>>> group_label("Nc1ccc(S(=O)(=O)Nc2ccnn2-c2ccccc2)cc1")
"inactive"
>>> group_label("Nc1nc2ccc(OC(F)(F)F)cc2s1")
"inactive"
>>> group_label("CCOC(=O)N1CCC(=C2c3ccc(Cl)cc3CCc3cccnc32)CC1")
"active"
>>> group_label("O=c1[nH]cnc2[nH]ncc12")
"inactive"
>>> group_label("N=c1nc(N2CCCCC2)cc(N)n1O")
"inactive"
>>> group_label("c1ccc([C@H]2CN3CCSC3=N2)cc1")
"inactive"
>>> group_label("Cc1cnc(NC(=O)C2=C(O)c3ccccc3S(=O)(=O)N2C)s1")
"inactive"
>>> group_label("Oc1ccc(C2CNCCc3c2cc(O)c(O)c3Cl)cc1 (stereo not drawn)")
"active"
>>> group_label("CC(C)(Sc1ccc(CCN(CCCCC2CCCCC2)C(=O)NC2CCCCC2)cc1)C(=O)O")
"inactive"
>>> group_label("C1COC(NC(C2CC2)C2CC2)=N1")
"active"

###

- Tested on: JCK
- run.description: qHTS profiling for inhibitors of Plasmodium falciparum proliferation (AID 504749); note: nearly all actives have a fitted effect of over 60% in size
- experimental.parameters: P. falciparum in erythrocytes, SYBR Green DNA, 72 h; series mostly up to 28.7 µM
Records with an inconclusive call do not appear. Active and inactive are the calls of the source. Calls come from the whole dose curve; as a rule, active = well fitted inhibition curve with a large enough effect; inconclusive = small, poorly fitted or top-dose-only effect; inactive = flat fitted curve, though single readings scatter.
property.label: outcome

>>> measured_result("Clc1ccc(Nc2nnc(Cc3ccncc3)c3ccccc23)cc1")
"inactive"
>>> measured_result("CC(=O)Oc1ccccc1C(=O)O")
"inactive"
>>> measured_result("Cn1cnc([N+](=O)[O-])c1Sc1ncnc2nc[nH]c12")
"inactive"
>>> measured_result("Cc1oncc1C(=O)Nc1ccc(C(F)(F)F)cc1")
"inactive"
>>> measured_result("Cc1[nH]c(=O)c(C#N)cc1-c1ccncc1")
"inactive"
>>> measured_result("Cc1cn[nH]c1")
"inactive"
>>> measured_result("CCCc1nn(C)c2c(=O)[nH]c(-c3cc(S(=O)(=O)N4CCN(C)CC4)ccc3OCC)nc12")
"inactive"
>>> measured_result("NCCCC(N)(C(=O)O)C(F)F (centres undefined)")
"inactive"
>>> measured_result("N[C@@H]1CONC1=O")
"inactive"

###

Property: Potency; scope: individual compounds
- run.description: Quantitative High-Throughput drug screen in 47 multiple myeloma cell lines against the NCATS MIPE library collection: SKMM1_PLB cell viability assay (AID 1919863); note: potency is the fitted concentration of half-maximal effect; nearly all actives have a fitted effect of over 35% in size
- experimental.parameters: SKMM1 myeloma viability, CellTiter-Glo ATP, 48 h
Inconclusive results are not listed. Activity calls are given as the source filed them. Calls come from the whole dose curve; as a rule, active = well fitted cell-killing curve with a large enough effect; inconclusive = small, poorly fitted or top-dose-only effect, or effect the other way; inactive = no such curve, though single readings can be large or run the other way.
property.label: Potency

>>> measured_result("Cc1ccc(N(CC2=NCCN2)c2cccc(O)c2)cc1")
"29.6 µM (active)"
>>> measured_result("CC1(C)SCCN(S(=O)(=O)c2ccc(OCC#CCO)cc2)[C@@H]1C(=O)NO")
"0.118 µM (active)"
>>> measured_result("COc1c(Cl)cc2c([nH]c3cnccc32)c1NC(=O)c1cccnc1C")
"6.62 µM (active)"
>>> measured_result("COc1ccccc1[C@H](c1cccc2ccccc12)[C@@](C)(C#N)C(=O)N1CCC(c2cccc(C(F)(F)F)c2)CC1")
"5.9 µM (active)"
>>> measured_result("COc1ccc(C2=N[C@H](c3ccc(Cl)cc3)[C@H](c3ccc(Cl)cc3)N2C(=O)N2CCNC(=O)C2)c(OC(C)C)c1")
"5.9 µM (active)"

###

- run.description: Primary qHTS for small molecule stabilizers of the endoplasmic reticulum resident proteome: Secreted ER Calcium Modulated Protein (SERCaMP) assay (AID 1508630)
- experimental.parameters: SH-SY5Y GLuc-SERCaMP (Gaussia luciferase released on ER calcium loss) secretion, thapsigargin, luminescence; series mostly up to 38.4 µM
- Description: Assay Provider: Brandon K. Harvey Ph.D. National Institute on Drug Abuse, National Institutes of Health, Baltimore, MD Endoplasmic reticulum (ER) dysregulation is associated with human pathologies including neurodegenerative, cardiovascular, muscular, and diabetic conditions. […] To identify such compounds, we performed a quantitative high-throughput screen (qHTS) using the SERCaMP assay, which monitors secretion of ER resident proteins triggered by calcium depletion. […]
Results filed as inconclusive are left out. The source made the active and inactive calls. Calls follow the shape of the dose curve; as a rule, active = well fitted inhibition curve with a large enough effect; inconclusive = small, poorly fitted or top-dose-only effect; inactive = no such curve, though single readings can be large or run the other way.
Labels: active, inactive

>>> group_label("O=C(C1CC1)N1CC[C@@H](Cn2c(-c3ccc(-c4ccc5occc5c4)cc3)nc3cnccc32)C1")
"inactive"
>>> group_label("CN1CCN(CCCN2c3ccccc3Sc3ccc(C(F)(F)F)cc32)CC1")
"inactive"
>>> group_label("CCCS(=O)(=O)Nc1ccc(F)c(C(=O)c2c[nH]c3ncc(Cl)cc23)c1F")
"inactive"
>>> group_label("COc1nc(-c2ccc3c(c2)OCO3)n(-c2ccc(NC(=O)CSc3ccccc3)cc2)n1")
"inactive"
>>> group_label("Cc1ccnc(NS(=O)(=O)c2ccc(NC(=O)Nc3ccc(S(=O)(=O)Nc4nccc(C)n4)cc3)cc2)n1")
"inactive"
>>> group_label("CNC(=O)c1ccccc1Sc1ccc2c(/C=C/c3ccccn3)n[nH]c2c1")
"inactive"
>>> group_label("NNCCc1ccccc1")
"inactive"
>>> group_label("CC(C[N+](C)(C)C)OC(N)=O (centres undefined)")
"inactive"
>>> group_label("C[C@]12CCC(=O)C=C1CC[C@@H]1[C@@H]2[C@@H](O)C[C@@]2(C)[C@H]1CC[C@]2(O)C(=O)CO")
"inactive"
>>> group_label("COc1ccc(-c2c(-c3ccc(O)cc3O)n[nH]c2C)cc1")
"inactive"
>>> group_label("c1ccc([C@H]2CN3CCSC3=N2)cc1")
"inactive"
>>> group_label("COc1ccc(-c2ccc3c(N4CCOCC4)nc(N4C[C@@H](C)O[C@@H](C)C4)nc3n2)cc1CO")
"active"
>>> group_label("CN[C@@H](C)C(=O)N[C@H]1CCCC[C@H]2CC[C@@H](C(=O)N[C@@H](c3ccccc3)c3cn(CCCCc4ccc(CCCCn5cc([C@@H](NC(=O)[C@@H]6CC[C@@H]7CCCC[C@H](NC(=O)[C@H](C)NC)C(=O)N76)c6ccccc6)nn5)cc4)nn3)N2C1=O")
"inactive"
>>> group_label("Nc1nc2[nH]cc(CCc3ccc(C(=O)N[C@@H](CCC(=O)O)C(=O)O)cc3)c2c(=O)[nH]1")
"inactive"
>>> group_label("CCCc1nc2c(C)cc(-c3nc4ccccc4n3C)cc2n1Cc1ccc(-c2ccccc2C(=O)O)cc1")
"inactive"
>>> group_label("COc1ccc2c3n(c(=NC(=O)c4cccnc4)nc2c1OC)CCN3")
"inactive"
>>> group_label("CO[C@@H]1[C@H](N(C)C(=O)c2ccccc2)C[C@H]2O[C@]1(C)n1c3ccccc3c3c4c(c5c6ccccc6n2c5c31)C(=O)NC4")
"inactive"
>>> group_label("CC(C)(C)OC(=O)CN(Cc1ccc(Cl)cc1)Cc1ccc([N+](=O)[O-])s1")
"inactive"
>>> group_label("COc1ccc(C2=N[C@H](c3ccc(Cl)cc3)[C@H](c3ccc(Cl)cc3)N2C(=O)N2CCNC(=O)C2)c(OC(C)C)c1")
"inactive"
>>> group_label("N#CC[C@H](C1CCCC1)n1cc(-c2ncnc3[nH]ccc23)cn1")
"inactive"
>>> group_label("Nc1nc2c(ncn2COCCO)c(=O)[nH]1")
"inactive"
>>> group_label("Cc1c(C)c2c(c(C)c1O)CCC(C)(COc1ccc(CC3SC(=O)NC3=O)cc1)O2 (centres undefined)")
"inactive"
>>> group_label("N[C@@H]1CONC1=O")
"inactive"
>>> group_label("S=C(NCc1ccc2c(c1)OCO2)N1CCN(c2ncnc3c2oc2ccccc23)CC1")
"inactive"
>>> group_label("CC(C)OC(=O)C1=CN(C(=O)c2ccc(F)c(F)c2)CC(C)(C)c2c1[nH]c1ccccc21")
"inactive"
>>> group_label("O=C(C=Cc1ccc(/C=C/C(=O)Nc2ccc(C3=NCCN3)cc2)cc1)Nc1ccc(C2=NCCN2)cc1")
"inactive"
>>> group_label("CC1(C)Cc2c(-c3ccccc3)c(-c3ccc(Cl)cc3)c(CC(=O)O)n2C1")
"inactive"
>>> group_label("OC(CCN1CCCCC1)(c1ccccc1)C1CC2C=CC1C2 (centres undefined)")
"active"
>>> group_label("NC(N)=NC(=O)c1nc(Cl)c(N)nc1N")
"inactive"
>>> group_label("COc1cc2c(cc1OC)CN(CCc1ccc(NC(=O)c3cccc4c(=O)c5cccc(OC)c5[nH]c34)cc1)CC2")
"inactive"
>>> group_label("CC(c1cc2ccccc2s1)N(O)C(N)=O (centres undefined)")
"inactive"
>>> group_label("NS(=O)(=O)c1cc2c(cc1Cl)NC=NS2(=O)=O")
"inactive"
>>> group_label("CCOc1cc(C=C2C(=O)N(c3ccccc3)N=C2C)cc(Cl)c1OCC(=O)OC")
"inactive"
>>> group_label("Cc1cc(SCc2sc(-c3ccc(C(F)(F)F)cc3)nc2C)ccc1OCC(=O)O")
"inactive"
>>> group_label("Clc1cccc(Cl)c1NC1=NCCN1")
"inactive"
>>> group_label("CCOc1ccc(Cc2cc([C@@H]3O[C@H](CO)[C@@H](O)[C@H](O)[C@@H]3O)ccc2Cl)cc1")
"inactive"
>>> group_label("COc1cc2nccc(Oc3ccc(NC(=O)NC4CC4)c(Cl)c3)c2cc1C(N)=O")
"inactive"
>>> group_label("C#Cc1cccc(Nc2ncnc3cc(OCCOC)c(OCCOC)cc23)c1")
"inactive"
>>> group_label("Nc1nc2ccc(OC(F)(F)F)cc2s1")
"inactive"
